Molecular target: Human VPS34 (Homo sapiens, UniProt Q8NEB9)
Construct: GST (N); host or cells: SF9 insect cells (baculovirus)
Sequence (Q8NEB9 whole entry): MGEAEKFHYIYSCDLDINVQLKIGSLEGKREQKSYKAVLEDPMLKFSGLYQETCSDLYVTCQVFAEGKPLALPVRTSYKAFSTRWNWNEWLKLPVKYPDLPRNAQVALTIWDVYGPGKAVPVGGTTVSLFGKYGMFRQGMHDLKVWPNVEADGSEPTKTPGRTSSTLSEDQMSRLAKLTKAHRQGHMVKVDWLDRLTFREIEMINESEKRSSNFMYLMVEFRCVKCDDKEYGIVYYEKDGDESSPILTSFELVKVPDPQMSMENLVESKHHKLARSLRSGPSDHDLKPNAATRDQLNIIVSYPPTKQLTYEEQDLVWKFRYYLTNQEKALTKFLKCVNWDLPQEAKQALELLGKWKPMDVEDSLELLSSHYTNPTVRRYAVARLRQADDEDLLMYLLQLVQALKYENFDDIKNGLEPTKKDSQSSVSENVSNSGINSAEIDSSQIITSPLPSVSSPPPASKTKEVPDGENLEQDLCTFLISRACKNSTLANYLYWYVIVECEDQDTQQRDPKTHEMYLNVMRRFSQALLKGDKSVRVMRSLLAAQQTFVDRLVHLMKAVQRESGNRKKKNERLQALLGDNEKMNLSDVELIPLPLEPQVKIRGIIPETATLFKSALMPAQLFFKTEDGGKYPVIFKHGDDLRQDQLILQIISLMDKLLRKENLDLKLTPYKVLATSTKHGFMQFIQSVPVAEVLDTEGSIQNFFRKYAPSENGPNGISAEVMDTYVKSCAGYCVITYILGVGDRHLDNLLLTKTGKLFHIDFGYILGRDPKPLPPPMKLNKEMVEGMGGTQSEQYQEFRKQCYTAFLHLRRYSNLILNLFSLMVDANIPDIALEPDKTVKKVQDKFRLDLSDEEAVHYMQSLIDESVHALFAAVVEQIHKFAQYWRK
Assay: Human VPS34 Enzyme Assay (Adapta TR-FRET)
Format: biochemical
Details: compound at 1.111 μM; read-out: Average VPS34 % INH @ 1.111 μM
Observed Property: inhibition at 1.111 µM (%)

Examples with their reported inhibition at 1.111 µM follow.
molecule="CC(=O)Nc1cc(-c2nc(C(=O)NCCc3cn4ccccc4n3)c(-c3ccccc3Cl)o2)c(C)cn1 [Compound I-82]" target_entity="Human VPS34 (Homo sapiens, UniProt Q8NEB9)" experimental_value=68
molecule="CC(=O)Nc1cc(-c2cc(C(N)=O)c(-c3ccccc3Cl)o2)ccn1 [Compound I-1]" target_entity="Human VPS34 (Homo sapiens, UniProt Q8NEB9)" experimental_value=120
molecule="CC(=O)Nc1cc(-c2nc(C(=O)N(C)C)c(-c3ccccc3Cl)o2)c(C)cn1 [Compound I-73]" target_entity="Human VPS34 (Homo sapiens, UniProt Q8NEB9)" experimental_value=115

I = CC(=O)Nc1cc(-c2cc(C(=O)NCCC(C)C)c(-c3ccccc3Cl)o2)c(C)cn1 [Compound I-80]
II = CC(=O)Nc1cc(-c2nc(C(=O)NCCCn3ccnc3)c(-c3ccccc3Cl)o2)c(C)cn1 [Compound I-63]
Query: Which of these two has the smaller recorded inhibition at 1.111 µM: I or II ? Kindly state the label of the option you pick.
Result: II

The measurements presented in this section are drawn from patent US8859768B2.
